Data provenance is paper PMC3413742.

# assayed target: NET (Homo sapiens)
# procedure summary: [3H]DA uptake inhibition at the NET
# Assay type: cell-based
value type: IC50

# input Looking for the measured IC50 of NC(=O)C[S@@+]([O-])C(c1ccccc1)c1ccccc1 [R-modafinil, R-(−)-modafinil] , can you help?
# output > 100 µM

----------
# assayed target: NET (Homo sapiens, UniProt P23975)
# Sequence (P23975 whole entry): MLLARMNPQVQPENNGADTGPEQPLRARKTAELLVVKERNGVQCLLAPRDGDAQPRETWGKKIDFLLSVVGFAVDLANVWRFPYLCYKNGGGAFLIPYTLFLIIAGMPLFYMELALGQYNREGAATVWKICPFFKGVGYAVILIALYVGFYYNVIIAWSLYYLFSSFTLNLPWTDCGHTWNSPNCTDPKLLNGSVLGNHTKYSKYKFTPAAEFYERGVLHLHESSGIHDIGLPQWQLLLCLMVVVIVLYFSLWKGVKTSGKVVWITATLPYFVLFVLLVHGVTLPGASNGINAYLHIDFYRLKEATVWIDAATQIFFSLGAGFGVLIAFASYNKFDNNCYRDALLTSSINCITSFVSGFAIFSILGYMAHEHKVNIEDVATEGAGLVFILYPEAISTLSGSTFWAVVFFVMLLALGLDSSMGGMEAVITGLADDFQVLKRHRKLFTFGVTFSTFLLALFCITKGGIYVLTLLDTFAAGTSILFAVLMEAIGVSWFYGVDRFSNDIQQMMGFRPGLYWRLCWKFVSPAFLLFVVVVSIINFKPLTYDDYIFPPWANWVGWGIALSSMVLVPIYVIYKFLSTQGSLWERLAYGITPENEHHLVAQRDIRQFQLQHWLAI
# procedure summary: [3H]nisoxetine binding at the NET
# test settings: read-out: IC50, inhibition of [3H]nisoxetine binding at the NET; N=3, data not shown
value type: IC50

# input Looking for the measured IC50 of NC(=O)C[S@+]([O-])C(c1ccccc1)c1ccccc1 [S-modafinil, S-(+)-modafinil] , can you help?
# output > 100 µM
